Provenance of the data: ChEMBL document CHEMBL4689842

Tested on: U2OS
Assay: Multiplex assay against U2OS
Format: toxicity, cell-based
Details: human, 12 h, 1 µM, compound concentration 1 uM, replicate 2
We use 10% as the dividing line for Population Fragmented Nuclei (%): on or above the line is T, below is F.

# input Is reported Population Fragmented Nuclei (%) greater than or equal to 10% here: COc1cc2c(Nc3ccc(NC(=O)c4ccccc4)cc3)ncnc2cc1OCCCN1CCOCC1
# output T

# input Is reported Population Fragmented Nuclei (%) greater than or equal to 10% here: CC(C)Oc1ccc(C(=O)N[C@H](CNC(=O)CN(C)C)Cc2ccc(-c3cn4cccc([C@H](C)O)c4n3)cc2)cc1Cl [GSK-923295A]
# output T

# input Is reported Population Fragmented Nuclei (%) greater than or equal to 10% here: CCOc1cc2ncc(C#N)c(Nc3ccc(OCc4cccc(F)c4)c(Cl)c3)c2cc1NC(=O)/C=C/CN(C)C
# output T

# input Is reported Population Fragmented Nuclei (%) greater than or equal to 10% here: CCn1c(-c2nonc2N)nc2cnc(Oc3cccc(NC(=O)c4ccc(OCCN5CCOCC5)cc4)c3)cc21 [GSK-269962A]
# output T

# input Is reported Population Fragmented Nuclei (%) greater than or equal to 10% here: Cc1cn(-c2cc(NC(=O)c3ccc4c(c3)CN(c3cncnc3)C[C@@H]4C)cc(C(F)(F)F)c2)cn1
# output F

# input Is reported Population Fragmented Nuclei (%) greater than or equal to 10% here: CCC(=O)O[C@]1(C(=O)SCF)[C@H](C)C[C@H]2[C@@H]3C[C@H](F)C4=CC(=O)C=C[C@]4(C)[C@@]3(F)[C@@H](O)C[C@@]21C [FLUTICASONE PROPIONATE]
# output F
